applied-conditions: in toluene, 293.26 K
experimental-endpoint: solubility (mole fraction)

[[record]]
compound = "OC[C@@H](O)C(O)[C@@H](O)CO (stereo partly specified)"
experimental_endpoint = "solubility (mole fraction)"
observed_measurement = "3.99e-05"


---

applied-conditions: in isopropanol, 313.32 K
experimental-endpoint: solubility (mole fraction)

[[record]]
molecule = "OC[C@@H](O)C(O)[C@@H](O)CO (stereo partly specified)"
experimental_endpoint = "solubility (mole fraction)"
observed_measurement = 0.00342


---

applied-conditions: in acetone, 298.18 K
experimental-endpoint: solubility (mole fraction)

[[record]]
compound = "OC[C@@H](O)C(O)[C@@H](O)CO (stereo partly specified)"
experimental_endpoint = "solubility (mole fraction)"
observed_measurement = 0.00024


---

applied-conditions: in toluene, 318.33 K
experimental-endpoint: solubility (mole fraction)

[[record]]
molecule = "OC[C@@H](O)C(O)[C@@H](O)CO (stereo partly specified)"
observed_measurement = "6.42e-05"


---

applied-conditions: in n-butanol, 303.26 K
experimental-endpoint: solubility (mole fraction)

[[record]]
molecule = "OC[C@@H](O)C(O)[C@@H](O)CO (stereo partly specified)"
observed_measurement = 0.00212


---

applied-conditions: in isopropanol, 338.19 K
experimental-endpoint: solubility (mole fraction)

[[record]]
compound = "OC[C@@H](O)C(O)[C@@H](O)CO (stereo partly specified)"
observed_measurement = 0.0146


---

applied-conditions: in water, 303.17 K
experimental-endpoint: solubility (mole fraction)

[[record]]
compound = "OC[C@@H](O)C(O)[C@@H](O)CO (stereo partly specified)"
experimental_endpoint = "solubility (mole fraction)"
observed_measurement = 0.203


---

applied-conditions: in isopropanol, 308.19 K
experimental-endpoint: solubility (mole fraction)

[[record]]
compound = "OC[C@@H](O)C(O)[C@@H](O)CO (stereo partly specified)"
experimental_endpoint = "solubility (mole fraction)"
observed_measurement = 0.00268


---

applied-conditions: in acetone, 318.23 K
experimental-endpoint: solubility (mole fraction)

[[record]]
molecule = "OC[C@@H](O)C(O)[C@@H](O)CO (stereo partly specified)"
observed_measurement = 0.000743


---

applied-conditions: in n-pentanol, 323.29 K
experimental-endpoint: solubility (mole fraction)

[[record]]
compound = "OC[C@@H](O)C(O)[C@@H](O)CO (stereo partly specified)"
experimental_endpoint = "solubility (mole fraction)"
observed_measurement = 0.00263


---

applied-conditions: in DMF, 323.2 K
experimental-endpoint: solubility (mole fraction)

[[record]]
compound = "OC[C@@H](O)C(O)[C@@H](O)CO (stereo partly specified)"
observed_measurement = 0.134


---

applied-conditions: in n-butanol, 343.76 K
experimental-endpoint: solubility (mole fraction)

[[record]]
compound = "OC[C@@H](O)C(O)[C@@H](O)CO (stereo partly specified)"
observed_measurement = 0.0194


---

applied-conditions: in ethanol, 293.23 K
experimental-endpoint: solubility (mole fraction)

[[record]]
compound = "OC[C@@H](O)C(O)[C@@H](O)CO (stereo partly specified)"
observed_measurement = 0.00173


---

applied-conditions: in n-butanol, 308.27 K
experimental-endpoint: solubility (mole fraction)

[[record]]
molecule = "OC[C@@H](O)C(O)[C@@H](O)CO (stereo partly specified)"
observed_measurement = 0.00268


---

applied-conditions: in n-pentanol, 293.2 K
experimental-endpoint: solubility (mole fraction)

[[record]]
molecule = "OC[C@@H](O)C(O)[C@@H](O)CO (stereo partly specified)"
observed_measurement = 0.000298

